Test system: Zymoseptoria tritici
Experiment: Test A: preventive spray on wheat seedlings, wheat leaf blotch disease rating
Assay type: in vivo
Settings: 50 ppm, 100 = 100% disease control, 0 = no control
Text: General protocol for preparing test suspensions for Tests A-F: the test compounds were first dissolved in acetone in an amount equal to 3% of the final volume and then suspended at the desired concentration (in ppm) in acetone and purified water (50/50 mix by volume) containing 50 to 250 ppm of the surfactant PEG400 (polyhydric alcohol esters). The resulting test suspensions were then used in Tests A-F. The test solution was sprayed to the point of run-off on wheat seedlings. […]
Parameter: Test A disease control rating (%)
Write the number in % without appending the unit.

Challenge: Quickly give me recorded Test A disease control rating for COc1ccc(Cl)c(-n2nc(Br)c(=O)c(Cl)c2-c2ccc(F)cc2Cl)c1
Response given: 98

Challenge: Read off the recorded Test A disease control rating for COc1cc(OC)cc(-n2nc(CC#N)c(=O)c(C)c2-c2ccc(F)cc2F)c1
Response given: 61

Challenge: Give the reported value of Test A disease control rating for this record: CCn1c(-c2c(F)cc(F)cc2F)c(-c2cc(OC)c(Cl)c(OC)c2)cc(C#N)c1=O
Response given: 93

Challenge: State its Test A disease control rating for this molecule: Cc1c(-c2ccc(F)cc2Cl)c(-c2ccc(Cl)s2)nn(C)c1=O
Response given: 100

Challenge: Supply measured Test A disease control rating of COc1cc(OC)cc(-n2nc(CF)c(=O)c(C)c2-c2ccc(F)cc2F)c1 in your reply.
Response given: 100

Challenge: Supply Test A disease control rating value. Item: COc1ccc(Cl)c(-n2nc(C)c(=O)c(Cl)c2-c2ccc(F)cc2Cl)c1
Response given: 100

Challenge: Given the molecule CCOC(=O)c1nn(-c2cc(OC)cc(OC)c2Cl)c(-c2ccc(F)cc2F)c(C(=O)OCC)c1=O , write its reported Test A disease control rating.
Response given: 0

Challenge: Note down Test A disease control rating recorded for COc1ccc(Cl)c(-n2nc(Cl)c(=O)c(Cl)c2-c2ccc(F)cc2Cl)c1
Response given: 100

* * *

I'd be grateful if you could share measured melting point for these entries.

Challenge: Identify measured melting point corresponding to COc1ccc(Cl)c(-n2nc(C)c(=O)c(Cl)c2-c2ccc(F)cc2)c1
Response given: 207 to 210 °C

Challenge: Specify reported melting point for the compound shown: CCn1c(-c2c(F)cc(F)cc2F)c(-c2cc(OC)cc(OC)c2Cl)cc(C#N)c1=O
Response given: 171 to 173 °C

Challenge: Note melting point for the compound shown: COc1cc(OC)c(Cl)c(-c2cc(C#N)c(=O)n(C)c2-c2c(F)cc(F)cc2F)c1
Response given: 159 to 162 °C

Challenge: Tell us which melting point value is on record for COc1cc(OC)c(Cl)c(-n2nc(Br)c(=O)c(C)c2-c2ccc(F)cc2Cl)c1
Response given: 191 to 194 °C

Challenge: Please look at this compound and report its melting point: CCn1c(-c2ccc(F)cc2Cl)c(-c2cc(OC)cc(OC)c2Cl)cc(C#N)c1=O
Response given: 100 to 103 °C

Challenge: Supply recorded melting point for COc1cc(OC)cc(-n2nc(C)c(=O)c(C)c2-c2ccc(F)cc2Cl)c1 here.
Response given: 148 to 151 °C

Challenge: Give the reported melting point for this compound. COc1cc(OC)c(Cl)c(-c2noc(=O)c(C)c2-c2ccc(F)cc2Cl)c1
Response given: 161 to 164 °C

Challenge: Give the value of melting point reported for the following: CCn1c(-c2c(F)cc(F)cc2F)c(-c2cc(OC)cc(OC)c2)cc(C#N)c1=O
Response given: 185 to 187 °C
